Source listed as paper PMC12501149.

Biological target: biotinylated RBD of TcsL (Paeniclostridium sordellii, UniProt Q46342 1-2364)
Sequence (Q46342 whole entry): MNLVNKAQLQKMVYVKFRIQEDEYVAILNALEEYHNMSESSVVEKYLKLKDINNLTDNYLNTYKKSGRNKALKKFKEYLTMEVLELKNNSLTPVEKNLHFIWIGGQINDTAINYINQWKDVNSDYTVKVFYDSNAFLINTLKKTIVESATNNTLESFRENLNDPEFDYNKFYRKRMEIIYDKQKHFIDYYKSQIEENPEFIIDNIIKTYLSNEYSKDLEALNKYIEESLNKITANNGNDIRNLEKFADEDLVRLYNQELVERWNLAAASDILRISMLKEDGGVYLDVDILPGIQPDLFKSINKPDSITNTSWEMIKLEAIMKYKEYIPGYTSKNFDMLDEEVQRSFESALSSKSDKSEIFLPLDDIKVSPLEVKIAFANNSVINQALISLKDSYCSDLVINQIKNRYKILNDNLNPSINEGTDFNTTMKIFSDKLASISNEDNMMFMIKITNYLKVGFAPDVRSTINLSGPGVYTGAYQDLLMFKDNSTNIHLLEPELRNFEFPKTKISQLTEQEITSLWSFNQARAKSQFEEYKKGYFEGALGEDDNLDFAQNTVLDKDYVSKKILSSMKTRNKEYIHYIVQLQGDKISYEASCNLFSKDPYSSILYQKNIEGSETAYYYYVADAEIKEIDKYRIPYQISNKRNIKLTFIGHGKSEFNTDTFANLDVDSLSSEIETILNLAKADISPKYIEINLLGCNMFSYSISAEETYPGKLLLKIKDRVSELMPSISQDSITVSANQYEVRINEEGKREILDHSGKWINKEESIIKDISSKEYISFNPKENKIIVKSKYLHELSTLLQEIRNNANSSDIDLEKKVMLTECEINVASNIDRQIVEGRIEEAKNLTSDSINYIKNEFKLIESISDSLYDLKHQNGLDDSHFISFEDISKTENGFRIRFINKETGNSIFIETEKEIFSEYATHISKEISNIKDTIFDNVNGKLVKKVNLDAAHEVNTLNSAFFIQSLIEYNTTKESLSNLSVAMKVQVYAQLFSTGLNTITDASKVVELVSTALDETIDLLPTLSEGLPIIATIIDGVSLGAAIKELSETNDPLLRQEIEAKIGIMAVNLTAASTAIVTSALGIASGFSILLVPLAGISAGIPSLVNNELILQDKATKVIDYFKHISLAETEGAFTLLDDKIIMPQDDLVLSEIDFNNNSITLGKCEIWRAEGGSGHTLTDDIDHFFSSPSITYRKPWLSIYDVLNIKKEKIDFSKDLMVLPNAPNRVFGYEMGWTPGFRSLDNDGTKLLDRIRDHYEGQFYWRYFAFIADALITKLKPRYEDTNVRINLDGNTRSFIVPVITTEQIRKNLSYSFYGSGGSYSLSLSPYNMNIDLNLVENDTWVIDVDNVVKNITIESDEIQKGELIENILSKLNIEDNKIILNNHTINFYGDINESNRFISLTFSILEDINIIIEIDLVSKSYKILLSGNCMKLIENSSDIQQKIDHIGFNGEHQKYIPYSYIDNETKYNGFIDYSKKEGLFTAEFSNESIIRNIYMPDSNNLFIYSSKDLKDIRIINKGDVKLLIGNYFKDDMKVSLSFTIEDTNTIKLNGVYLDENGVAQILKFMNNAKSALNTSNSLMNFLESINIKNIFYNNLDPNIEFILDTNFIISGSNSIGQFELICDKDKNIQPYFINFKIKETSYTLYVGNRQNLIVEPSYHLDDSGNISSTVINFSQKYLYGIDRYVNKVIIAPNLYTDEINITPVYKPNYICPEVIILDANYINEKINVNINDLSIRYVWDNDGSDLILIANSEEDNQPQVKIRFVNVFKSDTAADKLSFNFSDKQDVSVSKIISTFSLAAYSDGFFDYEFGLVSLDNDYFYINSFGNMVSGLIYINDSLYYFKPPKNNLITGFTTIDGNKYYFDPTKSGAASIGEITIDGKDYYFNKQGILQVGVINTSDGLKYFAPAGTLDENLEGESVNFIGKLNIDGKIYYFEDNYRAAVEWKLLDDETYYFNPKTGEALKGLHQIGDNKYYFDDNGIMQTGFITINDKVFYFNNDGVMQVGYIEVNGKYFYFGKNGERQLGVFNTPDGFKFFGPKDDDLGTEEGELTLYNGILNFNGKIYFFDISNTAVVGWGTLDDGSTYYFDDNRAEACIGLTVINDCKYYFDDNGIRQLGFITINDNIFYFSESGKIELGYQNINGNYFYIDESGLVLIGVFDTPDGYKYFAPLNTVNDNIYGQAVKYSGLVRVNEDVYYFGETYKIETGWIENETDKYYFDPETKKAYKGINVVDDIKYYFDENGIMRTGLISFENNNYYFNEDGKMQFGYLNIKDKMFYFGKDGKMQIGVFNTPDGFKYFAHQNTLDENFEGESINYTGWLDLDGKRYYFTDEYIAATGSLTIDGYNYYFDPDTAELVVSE
Assay: SPR
Conditions: both partners purified
Measurement kind: pKd
Entry type: numeric. Quantity: pKd, the -log10 of concentration in molar units.

So, B4 (designed binder) TEEIIKEIKKMKEKGEKASSIIDLLKKAGYSEIAKKAELAALKSENMTEAAAEKAIEELK ? Its pKd was 10.24

Further cases:
Record F4 (designed binder) NEELIKEIKKLLKEGKPASEILELLKKAGKEEIAKEAEKAALSSYDMTKAAAEEAIKKLK , field pKd: 8.37
